# Study System: hMOR-1 (Homo sapiens, UniProt P35372)
# Construct: classical 7TM splice variant, C-terminal GFP fusion kept (pcDNA3-GFP), stably expressed in HEK 293 cells
# Sequence (P35372 whole entry, the tested form may be a part, canonical isoform): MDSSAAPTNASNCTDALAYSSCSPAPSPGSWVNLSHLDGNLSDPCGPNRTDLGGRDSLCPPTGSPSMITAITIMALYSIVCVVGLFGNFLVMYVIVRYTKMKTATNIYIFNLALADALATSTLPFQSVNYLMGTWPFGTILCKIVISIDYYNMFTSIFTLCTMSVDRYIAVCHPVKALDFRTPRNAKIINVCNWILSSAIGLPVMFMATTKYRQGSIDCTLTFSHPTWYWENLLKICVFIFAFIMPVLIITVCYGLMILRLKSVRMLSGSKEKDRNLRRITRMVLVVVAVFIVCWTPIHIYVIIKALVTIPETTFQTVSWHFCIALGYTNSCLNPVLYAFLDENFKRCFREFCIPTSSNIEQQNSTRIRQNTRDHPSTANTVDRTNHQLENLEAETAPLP
# Assay Explanation: cell-based
Metric Name: IC50 (nM)
# value in nM; strip the unit string

Would you kindly share the measured IC50 for CN1CC[C@]23c4c5ccc(O)c4O[C@H]2[C@@H](O[C@@H]2O[C@H](C(=O)O)[C@@H](O)[C@H](O)[C@H]2O)C=C[C@H]3[C@H]1C5 [M6G] ? 27.3
